Tested System: T1, IFN-γ receptor (IFNGR; IFNGR1 and IFNGR2) on human cells (human, UniProt P15260 18-489; P38484 22-337)
T1 sequence (looked up) 1: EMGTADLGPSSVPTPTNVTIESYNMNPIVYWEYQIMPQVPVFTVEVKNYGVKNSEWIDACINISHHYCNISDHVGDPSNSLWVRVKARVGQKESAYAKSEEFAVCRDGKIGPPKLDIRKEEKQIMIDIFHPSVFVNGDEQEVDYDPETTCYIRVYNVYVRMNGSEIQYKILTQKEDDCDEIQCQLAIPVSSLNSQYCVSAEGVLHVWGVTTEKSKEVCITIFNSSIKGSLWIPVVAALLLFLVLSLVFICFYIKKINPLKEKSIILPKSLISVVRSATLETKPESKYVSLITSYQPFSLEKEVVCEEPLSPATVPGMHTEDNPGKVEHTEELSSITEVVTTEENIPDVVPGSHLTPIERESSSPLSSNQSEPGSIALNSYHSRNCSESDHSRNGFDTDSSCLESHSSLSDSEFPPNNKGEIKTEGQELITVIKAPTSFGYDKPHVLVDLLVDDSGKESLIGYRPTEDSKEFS
T1 sequence (looked up) 2: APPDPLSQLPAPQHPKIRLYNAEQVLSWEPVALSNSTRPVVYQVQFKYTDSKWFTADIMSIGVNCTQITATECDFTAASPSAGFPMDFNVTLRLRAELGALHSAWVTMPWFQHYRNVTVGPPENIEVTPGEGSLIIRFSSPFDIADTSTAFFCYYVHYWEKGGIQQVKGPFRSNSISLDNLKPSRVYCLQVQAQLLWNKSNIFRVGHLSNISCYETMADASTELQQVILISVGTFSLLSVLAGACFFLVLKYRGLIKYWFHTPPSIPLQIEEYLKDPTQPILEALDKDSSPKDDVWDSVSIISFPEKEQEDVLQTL
Test Method Notes: cell-based or functional assay
Experimental Readout: EC50 in HT-29 cells, pSTAT1 (ng/mL)
// note: answer is a bare numeric in ng/mL

Compound 1, mono-mPEG-MAL-10K-rhIFN-γ-1b-M135C (ligand, Cys135 thioether-linked to linear mPEG-maleimide of about 10,000 daltons (mPEG-MAL-10K), succinimide ring closed, also called mPEG-MAL-10K-M135C-IFN-γ; M135C 10K linear) MQDPYVKEAENLKKYFNAGHSDVADNGTLFLGILKNWKEESDRKIMQSQIVSFYFKLFKNFKDDQSIQKSVETIKEDMNVKFFNSNKKKRDDFEKLTNYSVTDLNVQRKAIHELIQVMAELSPAAKTGKRKRSQCLFRGR = 11
Compound 2, mono-mPEG-MAL-20K-rhIFN-γ-1b-M135C (ligand, Cys135 thioether-linked to linear mPEG-maleimide of about 20,000 daltons (mPEG-MAL-20K), succinimide ring closed, also called mPEG-MAL-20K-M135C-IFN-γ; M135C 20K linear) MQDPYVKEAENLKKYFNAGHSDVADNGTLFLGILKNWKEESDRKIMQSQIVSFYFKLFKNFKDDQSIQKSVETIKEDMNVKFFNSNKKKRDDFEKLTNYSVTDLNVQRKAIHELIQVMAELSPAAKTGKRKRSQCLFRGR = 14
Compound 3, mono-mPEG2-ru-MAL-20K-rhIFN-γ-1b-M135C (ring closed) (ligand, Cys135 thioether-linked to branched mPEG2-maleimide of about 20,000 daltons (mPEG2-MAL-20K), succinimide ring closed, also called mPEG2-MAL-20K-M135C-IFN-γ; M135C 20K branched (RC)) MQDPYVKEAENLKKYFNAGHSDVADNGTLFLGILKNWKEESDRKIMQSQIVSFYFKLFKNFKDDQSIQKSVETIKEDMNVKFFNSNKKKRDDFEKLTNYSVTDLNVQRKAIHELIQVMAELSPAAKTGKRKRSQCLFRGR = 89
rhIFN-γ-1b-M135C cysteine mutein (ligand, also called IFN-γ-M135C; hIFN-γ M135C) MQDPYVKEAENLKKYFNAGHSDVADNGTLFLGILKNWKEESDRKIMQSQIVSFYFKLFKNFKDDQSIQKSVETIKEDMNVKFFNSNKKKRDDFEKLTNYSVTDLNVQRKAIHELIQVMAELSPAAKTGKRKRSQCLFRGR = 1.4

Bench note: what EC50 in HT-29 cells, pSTAT1 did rhIFN-γ-1b-S66C cysteine mutein (ligand, also called IFN-γ-S66C; hIFN-γ S66C) MQDPYVKEAENLKKYFNAGHSDVADNGTLFLGILKNWKEESDRKIMQSQIVSFYFKLFKNFKDDQCIQKSVETIKEDMNVKFFNSNKKKRDDFEKLTNYSVTDLNVQRKAIHELIQVMAELSPAAKTGKRKRSQMLFRGR show?
1.5

Where do these numbers come from? They come from patent US20250270273A1.
